- Assay Target: Thymidine phosphorylase (Escherichia coli (strain K12))
- Measurement Protocol: Thymidine Phosphorylase Inhibition Assay
- Experimental Parameters: 30 °C
pIC50: −log10 of the molar value.
Recorded pIC50 for the following molecules

# Record Smiles, pIC50
measured = [
    ("Cc1cn([C@H]2C[C@H](O)[C@@H](COC(=O)c3cccc(Br)c3)O2)c(=O)[nH]c1=O", 4.48),
    ("Cc1cn([C@H]2C[C@H](OC(=O)c3ccc(Br)cc3)[C@@H](COC(=O)c3ccc(Br)cc3)O2)c(=O)[nH]c1=O", 5.12),
    ("COc1ccc(C(=O)OC[C@H]2O[C@@H](n3cc(C)c(=O)[nH]c3=O)C[C@@H]2O)cc1", 4.73),
    ("Cc1cn([C@H]2C[C@H](OC(=O)c3ccc(Cl)cc3Cl)[C@@H](COC(=O)c3ccc(Cl)cc3Cl)O2)c(=O)[nH]c1=O", 3.84),
    ("COc1ccccc1C(=O)OC[C@H]1O[C@@H](n2cc(C)c(=O)[nH]c2=O)C[C@@H]1O", 4.05),
    ("Cc1ccc(C(=O)OC[C@H]2O[C@@H](n3cc(C)c(=O)[nH]c3=O)C[C@@H]2O)cc1", 4.73),
]

###

- Assay Target: Thymidine phosphorylase (Escherichia coli (strain K12), UniProt P07650)
- Sequence (P07650 whole entry): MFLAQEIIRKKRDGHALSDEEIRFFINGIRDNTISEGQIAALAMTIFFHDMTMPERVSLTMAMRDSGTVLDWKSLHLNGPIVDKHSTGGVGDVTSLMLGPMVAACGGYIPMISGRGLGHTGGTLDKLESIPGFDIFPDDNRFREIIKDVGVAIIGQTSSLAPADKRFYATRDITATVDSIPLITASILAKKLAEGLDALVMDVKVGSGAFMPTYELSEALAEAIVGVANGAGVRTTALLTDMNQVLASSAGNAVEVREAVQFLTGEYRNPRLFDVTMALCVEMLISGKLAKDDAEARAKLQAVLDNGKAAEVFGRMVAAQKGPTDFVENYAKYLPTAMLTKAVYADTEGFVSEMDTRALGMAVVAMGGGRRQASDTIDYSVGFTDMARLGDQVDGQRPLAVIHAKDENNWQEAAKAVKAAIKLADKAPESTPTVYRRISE
- Measurement Protocol: Kinetic Assay
- Experimental Parameters: 30 °C
pKi: −log10 of the molar value.

# Record Smiles, pKi
data = [
    ("Cc1cn([C@H]2C[C@H](O)[C@@H](COC(=O)c3cccc(Br)c3)O2)c(=O)[nH]c1=O", 4.94),
    ("Cc1cn([C@H]2C[C@H](OC(=O)c3ccc(Br)cc3)[C@@H](COC(=O)c3ccc(Br)cc3)O2)c(=O)[nH]c1=O", 5.11),
    ("Cc1ccc(C(=O)OC[C@H]2O[C@@H](n3cc(C)c(=O)[nH]c3=O)C[C@@H]2O)cc1", 4.90),
    ("COc1ccc(C(=O)OC[C@H]2O[C@@H](n3cc(C)c(=O)[nH]c3=O)C[C@@H]2O)cc1", 4.89),
]
